MEASUREMENT TARGET: His6-PDK1 (aa 52-556) (Homo sapiens, UniProt O15530)
Construct: 15 μL His6-PDK1 (aa 52-556) 3.33 ng/well); host or cells: baculovirus-infected insect cells
Sequence (O15530 52-556): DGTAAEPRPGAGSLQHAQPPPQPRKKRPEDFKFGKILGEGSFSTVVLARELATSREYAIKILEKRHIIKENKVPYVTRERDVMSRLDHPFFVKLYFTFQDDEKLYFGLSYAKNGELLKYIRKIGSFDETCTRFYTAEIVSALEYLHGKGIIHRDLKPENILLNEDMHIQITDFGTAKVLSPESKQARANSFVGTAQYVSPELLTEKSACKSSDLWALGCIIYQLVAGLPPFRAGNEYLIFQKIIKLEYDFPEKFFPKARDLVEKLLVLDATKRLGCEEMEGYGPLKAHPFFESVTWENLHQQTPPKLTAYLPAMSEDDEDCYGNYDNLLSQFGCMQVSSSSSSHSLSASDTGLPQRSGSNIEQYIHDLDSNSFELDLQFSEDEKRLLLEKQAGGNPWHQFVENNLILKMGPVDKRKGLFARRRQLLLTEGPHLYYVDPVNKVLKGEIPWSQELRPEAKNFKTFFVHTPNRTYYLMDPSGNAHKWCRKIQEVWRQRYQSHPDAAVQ
PROTOCOL NOTES: PDK1 kinase assay III (with Tween 20)
Format: biochemical
CONDITION PARAMETERS: compound at 10 μM; PDK1 kinase assay III (values without asterisk); read-out: % CTL (residual activity of the enzyme relative to DMSO control)
ENDPOINT: remaining activity at 10 µM (%)
The reply should contain only the number, in %.

Problem: Find the recorded remaining activity at 10 µM belonging to NCCOc1cc(/C=C/CNC(=O)c2cncn(Cc3ccc(F)c(F)c3)c2=O)cc2cnc(Nc3ccccc3)nc12 and report it.
Solution: 14.2

Problem: Same lookup for Cc1c(C(=O)NCC#Cc2ccc3nc(Nc4ccc(CN(C)C)cc4)ncc3c2)c(=O)n(Cc2ccccc2)n1C , please.
Solution: 14.7

Problem: Same lookup for O=C1Nc2cc(/C=C/CNC(=O)c3cncn(Cc4ccc(F)c(F)c4)c3=O)ccc2/C1=C/c1ccc[nH]1 , please.
Solution: 18.1

Problem: Same lookup for Cc1c(C(=O)NCC#Cc2ccc3c(-c4ccco4)n[nH]c3c2)c(=O)n(Cc2ccc(F)c(F)c2)n1C , please.
Solution: 22.7

Problem: Same lookup for COC(=O)c1ccc(Nc2ncc3cc(C#CCNC(=O)c4c(C)n(C)n(Cc5ccc(F)c(F)c5)c4=O)ccc3n2)cc1 , please.
Solution: 21

Problem: Same lookup for Cc1c(C(=O)NC/C=C\c2ccc3cn[nH]c3c2)c(=O)n(Cc2ccc(F)c(F)c2)n1C , please.
Solution: 27.4

Problem: Same lookup for O=C1Nc2cc(/C=C/CNC(=O)c3cc(Cl)nn(Cc4ccc(F)c(F)c4)c3=O)ccc2/C1=C/c1ccc[nH]1 , please.
Solution: 21.4
